- Target under test: Peptide 1: Biotin-…-[Tyr(PC)]-acid
- Sequence (peptide, as listed by the source): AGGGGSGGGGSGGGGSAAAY
- Assay name: scFv ELISA
Overview of reported OD450 across a group of binders:
A number alone suffices; assume OD450.

{"Binder": "PcOxP_DB04_B11 (scFv, V domains shown, scFv in periplasmic extract) VH: EVQLLESGGGLVQPGGSLRLSCAASGDTFSDFYMEWVRQAPGKGLEWVAASRWKANDYTTEYADSVKGRFTISRDNSKNTLYLQMNSLRAEDTAVYYCARDYYGSSYWYFDVWGQGTLVTVSS VL: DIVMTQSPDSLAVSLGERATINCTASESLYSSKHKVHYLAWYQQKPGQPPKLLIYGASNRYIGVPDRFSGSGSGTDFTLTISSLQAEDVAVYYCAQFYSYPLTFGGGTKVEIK", "OD450, OD450": 0.26}
{"Binder": "PcOxP_DB03_A06 (scFv, V domains shown, scFv in periplasmic extract) VH: EVQLLESGGGLVQPGGSLRLSCAASGFTFSSYYMEWVRQAPGKGLEWVAASRSKANDYTTEYADSVKGRFTISRDNSKNTLYLQMNSLRAEDTAVYYCARDYYGSQYWYFDVWGQGTLVTVSS VL: DIVMTQSPDSLAVSLGERATINCTASESLYSNKHKVHYLAWYQQKPGQPPKLLIYGASNRYIGVPDRFSGSGSGTDFTLTISSLQAEDVAVYYCAQFYSYPLTFGGGTKVEIK", "OD450, OD450": 0.99}

Now for the binder whose OD450 we want.
Q. Look up and report measured OD450 for this entry: PcOxP_DB03_D10 (scFv, V domains shown, scFv in periplasmic extract) VH: EVQLLESGGGLVQPGGSLRLSCAASGFTTSDFYMEWVRQAPGKGLEWVAASRNKANGYTTEYADSVKGRFTISRDNSKNTLYLQMNSLRAEDTAVYYCARDYYGSSYWYFDVWGQGTLVTVSS VL: DIVMTQSPDSLAVSLGERATINCTASESLYSSKHKVHYLAWYQQKPGQPPKLLIYGASGRYIGVPDRFSGSGSGTDFTLTISSLQAEDVAVYYCAQFYSYPLTFGGGTKVEIK
A. 1.19
